Listed here: molecules with reported IC50 for ROCK2 (Homo sapiens, UniProt O75116).
quantity_name: IC50 (nM)

P: Cc1ccc(CN2CCC[C@@H](Nc3ccc4[nH]ncc4c3)C2)cc1OCCOC(=O)c1ccccc1
Q: CC(C)(C)OC(=O)COc1cccc(CN2CCC[C@H](Nc3ccc4[nH]ncc4c3)C2)c1
R: OCCOc1cccc(CN2CC[C@@H](Nc3cccc4cnccc34)C2)c1
S: O=C(OCCOc1cccc(CN2CCC[C@@H](Nc3ccc4[nH]ncc4c3)C2)c1)c1ccccc1
T: CCOC(=O)COc1cccc(CN2CCCC(Nc3ccc4[nH]ncc4c3)C2)c1 (centres unmarked)
Ask: Rank the molecules listed above in increasing order of IC50. Could you list the labels in the order requested?
Reply: R, T, Q, P, S

I: CC1(C(=O)OCCOc2cccc(CN3CC[C@@H](Nc4cccc5cnccc45)C3)c2)CC1
II: Cc1ccc(CN2CC[C@@H](Nc3cccc4cnccc34)C2)cc1OCCOC(=O)c1ccccc1
Ask: Record comparison, field IC50: mark the lower of I and II . Answer by quoting the chosen item's label.
Reply: II
(II: 717 nM, I: 1050 nM)
